Cited source for all entries: PubChem BioAssay AID624330

Reported inhibition is given for each of the following molecules.
- ASSAY TARGET: Rac GTPase-activating protein 1 (Homo sapiens)
- METHOD SUMMARY: blockers of MgcRacGAP-driven Rac1 GTP hydrolysis – biochemical, ADP Hunter fluorescence, primary and confirmatory, confirmation (AID 624330);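 note: fluorescence reports GDP produced by GAP-driven GTP hydrolysis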
- COND: MgcRacGAP-stimulated Rac1 GTP hydrolysis, at 30 µM, stronger effect = higher value, GST-tagged Rac1 F28L mutant substrate
The campaign covered roughly 340,000 compounds. About 2,100 (0.62%) were called active. These entries were drawn from the full list. Potency and affinity values are given separately.
MEASUREMENT NAME: inhibition (%)

* COc1ccc(Cl)cc1C(=O)NNC(=O)c1n[nH]c2ccccc12 | 4.94
* COc1ccc(CN2CCC(C(=O)N3CCCC(C)C3)CC2)cc1OC (configuration not stated) | 12.3
* O=C(Nc1cc(C(F)(F)F)ccc1N1CCOCC1)c1ccc(F)cc1 | 9.9
* COc1cc(CN2CCC(C(=O)NC3CCCC3)CC2)cc(OC)c1O | 23.1
* CSc1nsc2nc(=O)c(/C=C3\C=Nc4ccccc43)c(N)n12 | 1.86
* COc1ccccc1OCC#CCSc1ncccn1 | 7.44
* CC(C)CC1C(C#N)=C(N)OC2=C1C(=O)CC(c1ccccc1)C2 (configuration not stated) | -2.75
* COc1ccc(/C=N/Nc2ccc(C(=O)O)cc2)cc1OC | 12.8
* COc1cccc(CNC(=O)c2ccc(S(=O)(=O)N3CCCCC3)cc2)c1 | 9.59
* NC(=O)NCC1CC1 | 4.2
* Cc1sc2ncn(CC(=O)N3CCCCC3)c(=O)c2c1C | 6.45
* CCN(CC)c1ccc(/C=N/NC(=O)c2c[nH]c3ccccc23)cc1 | 30.9
* COc1cc(CN2CCC(C(=O)N3CCCC(C)C3)CC2)cc(OC)c1O (configuration not stated) | 26.8
* CN(Cc1nc2ccccc2c(=O)[nH]1)C(=O)COc1ccccc1Cc1ccccc1 | 4.16
* CCCCOc1ccc(NC(=O)CN2CCN(Cc3ccccc3)CC2)cc1 | 2.92
* COc1cc(CN2CCCCCC2)cc(Br)c1O | 15.4
* CSC[C@H]1CN(Cc2ccccc2)C(=O)[C@@H]1CC(=O)Nc1ccc(Br)cc1 | 11
* CCN1C(=O)[C@H]2[C@H]3CN=C(SCc4ccccc4)N3[C@@](C)(C(=O)OC)[C@H]2C1=O | 13.1
* COc1cc(/C=N/Nc2nc3ccccc3s2)ccc1OC(=O)c1ccccc1F | 4.55
* CC(C)(C)CC(=O)Nc1nnc(SCC(=O)NC2CCCC2)s1 | 4.93
* C/C=C(\C)C(=O)OC1[C@H](OC(C)=O)C2(CO)C(CC1(C)C)C1=CCC3C4(C)CCC(O[C@@H]5O[C@H](C(=O)O)[C@@H](O[C@@H]6O[C@H](CO)[C@@H](O)[C@H](O)[C@H]6O)[C@H](O)[C@H]5O[C@H]5O[C@H](CO)[C@@H](O)[C@H](O)[C@H]5O)[C@](C)(CO)C4CCC3(C)[C@]1(C)C[C@H]2O (some centres not stated) | 1.06
* Cc1cs/c(=N\N=C\c2ccccc2)n1Cc1ccco1 | 7.87
* CN(C)S(=O)(=O)c1ccc(NC(=O)CN2C(=O)NC3(CCCC3)C2=O)cc1 | 4.79
* COc1cc(NC(=O)CN2CCC(C(N)=O)(N3CCCCC3)CC2)c(OC)cc1Cl | 0.16
* O=C(NCc1ccccc1)NS(=O)(=O)c1ccccc1Cl | 2.6
* CCN(CC)c1ccc(/C=N\NC(=O)c2cccc3cc[nH]c23)cc1 | 21.1
* COc1cc(/C=N/Nc2nc3ccccc3s2)cc([N+](=O)[O-])c1O | 8.67
